Reference source: PubChem BioAssay AID485358

molecular target: D(2) dopamine receptor (Homo sapiens) (UniProt P14416); assay: HTS Assay for Allosteric Agonists of the Human D2 Dopamine Receptor: Primary Screen for Agonists; conditions: HEK293 T-REx D2 cells, calcium flux agonist mode; at 2 µM
Sequence (P14416 whole entry, looked up): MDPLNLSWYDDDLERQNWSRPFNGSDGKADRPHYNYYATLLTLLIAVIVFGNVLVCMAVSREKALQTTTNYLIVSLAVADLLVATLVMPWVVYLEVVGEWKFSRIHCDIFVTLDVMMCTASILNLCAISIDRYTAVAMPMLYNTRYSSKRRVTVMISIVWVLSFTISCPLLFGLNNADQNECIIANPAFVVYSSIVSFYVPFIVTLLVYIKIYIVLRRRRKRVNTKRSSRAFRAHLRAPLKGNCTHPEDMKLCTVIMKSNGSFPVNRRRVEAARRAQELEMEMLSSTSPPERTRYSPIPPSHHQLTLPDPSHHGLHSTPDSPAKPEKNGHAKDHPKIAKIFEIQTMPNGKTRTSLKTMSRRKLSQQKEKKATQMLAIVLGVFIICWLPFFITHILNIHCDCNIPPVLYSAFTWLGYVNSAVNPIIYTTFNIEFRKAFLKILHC
The campaign covered roughly 340,000 compounds. About 1,800 (0.53%) were called active.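 How the source made its calls: active means activation over 3 SD above normal in the single-dose calcium agonist read (cut at about 30% in these data); inactive means the rest.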 The entries come from a sample that favours actives as a whole.
Log the outcome using a class from TRUE (active), FALSE (inactive)

compound: COc1cc(C(CC(=O)NCCC(C)C)N2Cc3ccccc3C2=O)cc(OC)c1OC (stereo not drawn)
class: FALSE

compound: CC(NC(=O)c1cc2c(=O)n3ccccc3nc2n(C(C)C)c1=N)c1ccccc1 (stereo not drawn)
class: FALSE

Then there is this compound:
Outcome logged for `O=C(CN1CCN(c2cccc(Cl)c2)CC1)Nc1ccc(S(=O)(=O)N2CCOCC2)cc1` in this assay:
TRUE
